- METHOD DESCRIPTION: gradient 5% acetonitrile 3 min, to 50% in 2 min, to 85% in 15 min, held 3 min, 100 µL/min
- CONDITION PARAMETERS: column: Zorbax Extend-C18 2.1 x 50 mm; eluents: water / acetonitrile, 0.1% formic acid
ASSAY METRIC: RP-LC retention time (s)

[
  {
    "COMPOUND": "N#Cc1c(N)sc2c1CCC(c1ccccc1)C2 (centres undefined)",
    "ASSAY METRIC": "RP-LC retention time",
    "RECORDED MEASUREMENT": 955
  },
  {
    "COMPOUND": "Cc1ccc(CNC(=O)C2(C)CN(S(C)(=O)=O)CC(=O)N2c2ccc(F)cc2F)cc1 (centres undefined)",
    "ASSAY METRIC": "RP-LC retention time",
    "RECORDED MEASUREMENT": 814
  },
  {
    "COMPOUND": "CCN1C(=O)c2cc(C(=O)Nc3ccc(C)c(C)c3)nn2CC1(C)C(=O)NC1CCCC1 (centres undefined)",
    "ASSAY METRIC": "RP-LC retention time",
    "RECORDED MEASUREMENT": 884
  },
  {
    "COMPOUND": "CC(=O)NCCc1c(Cc2ccccc2)[nH]c2ccccc12",
    "ASSAY METRIC": "RP-LC retention time",
    "RECORDED MEASUREMENT": 876
  },
  {
    "COMPOUND": "Cn1nc(C(=O)N2CCC3(CC2)N=C(c2cccc(Br)c2)NO3)c2ccccc21",
    "ASSAY METRIC": "RP-LC retention time",
    "RECORDED MEASUREMENT": 923
  },
  {
    "COMPOUND": "CCc1ccc(C2=C(C)C(N3CCCN(C(=O)NCCOC)CC3)=NS2(=O)=O)cc1",
    "ASSAY METRIC": "RP-LC retention time",
    "RECORDED MEASUREMENT": 731
  },
  {
    "COMPOUND": "CCc1ccc(C2=C(C)C(N3CCCN(C(=O)C(C)CC)CC3)=NS2(=O)=O)cc1 (centres undefined)",
    "ASSAY METRIC": "RP-LC retention time",
    "RECORDED MEASUREMENT": 888
  },
  {
    "COMPOUND": "CCNC(=O)c1ccc2nc(C)c(C)nc2c1",
    "ASSAY METRIC": "RP-LC retention time",
    "RECORDED MEASUREMENT": 618
  },
  {
    "COMPOUND": "CN(CCc1ccc(Cl)c(Cl)c1)CCN1CCCC1",
    "ASSAY METRIC": "RP-LC retention time",
    "RECORDED MEASUREMENT": 646
  },
  {
    "COMPOUND": "Cc1ccc(-c2noc(C3CC(=O)N(c4ccc(Cl)cc4)C3)n2)cc1 (centres undefined)",
    "ASSAY METRIC": "RP-LC retention time",
    "RECORDED MEASUREMENT": 1060
  },
  {
    "COMPOUND": "O=C(NCC1CCOCC1)Nc1ccc(F)c(Cl)c1",
    "ASSAY METRIC": "RP-LC retention time",
    "RECORDED MEASUREMENT": 728
  },
  {
    "COMPOUND": "CNC(=O)C1CCCN(c2nc3ncn(CC(=O)Nc4cccc(Cl)c4)c(=O)c3s2)C1 (centres undefined)",
    "ASSAY METRIC": "RP-LC retention time",
    "RECORDED MEASUREMENT": 672
  },
  {
    "COMPOUND": "Cc1ccc(-n2nc(C)c3sc(N(C)CC(=O)N4CCC5(CC4)OCCO5)nc32)cc1",
    "ASSAY METRIC": "RP-LC retention time",
    "RECORDED MEASUREMENT": 932
  },
  {
    "COMPOUND": "Cc1ccc(-c2ncccc2CNS(=O)(=O)c2ccc(C)c(F)c2)cc1",
    "ASSAY METRIC": "RP-LC retention time",
    "RECORDED MEASUREMENT": 769
  }
]

---

- METHOD DESCRIPTION: gradient 5% acetonitrile 3 min, to 50% in 2 min, to 85% in 15 min, held 3 min, 100 µL/min
- CONDITION PARAMETERS: column: Zorbax Extend-C18 2.1 x 50 mm; eluents: water / acetonitrile, 0.1% formic acid
Grouping by measured RP-LC retention time is done with the following cut points: bin 0: < 700 s; bin 1: ≥ 700 s and < 800 s; bin 2: ≥ 800 s

[
  {
    "COMPOUND": "CC1CCCN(C(=O)c2csc(-c3ccc(N4CCCC4)nc3)n2)C1 (centres undefined)",
    "CLASS LABEL": "bin 0"
  },
  {
    "COMPOUND": "Cc1ccccc1NC(=O)N1CCC(CC(=O)N2CCCCC2)CC1",
    "CLASS LABEL": "bin 1"
  },
  {
    "COMPOUND": "CC(=O)Nc1cccc(-c2nc(-c3ccc4oc(-c5ccccc5)nc4c3)no2)c1",
    "CLASS LABEL": "bin 1"
  },
  {
    "COMPOUND": "O=C(Nc1ccccc1NC(=O)c1ccc(Br)o1)c1cccnc1",
    "CLASS LABEL": "bin 0"
  },
  {
    "COMPOUND": "COc1ccc(C)cc1NC(=O)C1CCCN1S(=O)(=O)c1cc2c(cc1C)NC(=O)C(C)O2 (centres undefined)",
    "CLASS LABEL": "bin 2"
  },
  {
    "COMPOUND": "COCCN1C(=O)c2cccn2CC1CNS(=O)(=O)c1cccc2nsnc12 (centres undefined)",
    "CLASS LABEL": "bin 0"
  },
  {
    "COMPOUND": "CCc1cc(=O)n(CC(=O)N(C)c2cccc(C)c2)c(N2CCOCC2)n1",
    "CLASS LABEL": "bin 1"
  },
  {
    "COMPOUND": "Cc1ccc(NC(=O)Cn2c(=O)n(-c3ccccc3)c(=O)c3c2cc(C)n3C)cc1F",
    "CLASS LABEL": "bin 2"
  },
  {
    "COMPOUND": "COc1ccc(C(=O)N2CCC3(CC2)N=C(c2ccc(Br)cc2)C(=O)N3)cc1",
    "CLASS LABEL": "bin 2"
  },
  {
    "COMPOUND": "CCCn1cnnc1C1CCCCN1Cc1ccc(Br)o1 (centres undefined)",
    "CLASS LABEL": "bin 0"
  },
  {
    "COMPOUND": "Cc1cc(NC(=O)NC2CCN(c3ccccc3)C2=O)ccc1Br (centres undefined)",
    "CLASS LABEL": "bin 2"
  },
  {
    "COMPOUND": "O=C(NC(C(=O)N1CCCc2ccccc21)c1ccccc1)c1cnccn1 (centres undefined)",
    "CLASS LABEL": "bin 2"
  },
  {
    "COMPOUND": "Cc1ccccc1Nc1c(-c2c(F)cccc2Cl)nc2cccc(C)n12",
    "CLASS LABEL": "bin 1"
  },
  {
    "COMPOUND": "Cc1cccc(-n2nnc(C(=O)O)c2-c2cccnc2)c1",
    "CLASS LABEL": "bin 0"
  },
  {
    "COMPOUND": "O=C(NCCc1ccco1)c1ccc2c(c1)NC(=O)C1CCCCN21 (centres undefined)",
    "CLASS LABEL": "bin 1"
  },
  {
    "COMPOUND": "O=C(NCCc1ccc(Cl)cc1)C1CCCN(c2ncnc3c2oc2ccccc23)C1 (centres undefined)",
    "CLASS LABEL": "bin 2"
  }
]

---

- METHOD DESCRIPTION: gradient 5% acetonitrile 3 min, to 50% in 2 min, to 85% in 15 min, held 3 min, 100 µL/min
- CONDITION PARAMETERS: column: Zorbax Extend-C18 2.1 x 50 mm; eluents: water / acetonitrile, 0.1% formic acid
Our labelling divides records by RP-LC retention time into ranges: bottom end: < 700 s; midrange: ≥ 700 s and < 800 s; top end: ≥ 800 s

[
  {
    "COMPOUND": "COc1cc(C(=O)Nc2sc3c(c2C(N)=O)CC(C)CC3)cc(OC)c1OC (stereo unspecified)",
    "CLASS LABEL": "top end"
  },
  {
    "COMPOUND": "CCC(=O)N(C1CCOCC1)C1CCN(Cc2cc(F)c(F)cc2F)CC1",
    "CLASS LABEL": "bottom end"
  },
  {
    "COMPOUND": "CCC(=O)N1CCN(c2nc(C)cc(N3CCCC3)n2)CC1",
    "CLASS LABEL": "bottom end"
  },
  {
    "COMPOUND": "CCN(CCCNC(=O)c1nnc(-c2ccc(S(=O)(=O)N3CCCC3)cc2)o1)Cc1ccccc1",
    "CLASS LABEL": "bottom end"
  },
  {
    "COMPOUND": "CCN1CCC2(CC1)OC(=O)C(C)=C2C(=O)N1CCN(c2cccc(OC)c2)CC1",
    "CLASS LABEL": "bottom end"
  },
  {
    "COMPOUND": "Cn1cc(-c2nc(C(=O)N3CCc4ccccc43)cs2)c2cccnc21",
    "CLASS LABEL": "top end"
  },
  {
    "COMPOUND": "COc1cc(NC(=O)CN2C(=O)CN=C(c3ccccc3Cl)c3cc(Cl)ccc32)cc(OC)c1",
    "CLASS LABEL": "top end"
  },
  {
    "COMPOUND": "Fc1cnccc1CN1CCC(N2CC3(CCCCC3)C2c2ccccc2)CC1 (stereo unspecified)",
    "CLASS LABEL": "bottom end"
  },
  {
    "COMPOUND": "CCC(=O)N1CCc2cc(-c3ccc(C(=O)N4CCN(c5ncccn5)CC4)cc3)ccc21",
    "CLASS LABEL": "top end"
  },
  {
    "COMPOUND": "CC1=C/C(=C2/N=C(N(C)C)SS2)C(C)=N1",
    "CLASS LABEL": "bottom end"
  },
  {
    "COMPOUND": "CCc1ccc(NC(=O)N2CCc3c(c(-c4nnc(-c5ccc(F)cc5)o4)nn3C)C2)cc1",
    "CLASS LABEL": "top end"
  },
  {
    "COMPOUND": "CC(C)c1ccc(NC(=O)C2CCN(S(C)(=O)=O)c3ccccc3O2)cc1 (stereo unspecified)",
    "CLASS LABEL": "top end"
  },
  {
    "COMPOUND": "CCOc1ccc(-n2nnnc2CN2CCN(C(=O)c3cccs3)CC2)cc1",
    "CLASS LABEL": "midrange"
  },
  {
    "COMPOUND": "COc1ccc(OCC(=O)N2CCN(c3nc(CN4CCOCC4)cs3)CC2)cc1",
    "CLASS LABEL": "bottom end"
  },
  {
    "COMPOUND": "O=C(c1cnccn1)N1CCc2nn(CC3CC3)c(=O)n2CC1",
    "CLASS LABEL": "bottom end"
  },
  {
    "COMPOUND": "CCCn1ccc2sc(C)c(C(=O)NC3CCCCC3)c2c1=O",
    "CLASS LABEL": "top end"
  },
  {
    "COMPOUND": "COc1ccc(N2C=C(C(=O)N3CCCC3)S(=O)(=O)c3ccc(Cl)cc32)cc1",
    "CLASS LABEL": "top end"
  },
  {
    "COMPOUND": "COc1ccc(C(O)CN2CCN(c3cccc(C)c3)CC2)cc1OC (stereo unspecified)",
    "CLASS LABEL": "bottom end"
  },
  {
    "COMPOUND": "O=C(NC1CCCCC1)c1nc(-c2ccncc2)cs1",
    "CLASS LABEL": "bottom end"
  },
  {
    "COMPOUND": "Cc1nc(C2CC23CCN(S(=O)(=O)c2cccnc2)CC3)no1 (stereo unspecified)",
    "CLASS LABEL": "midrange"
  },
  {
    "COMPOUND": "Cc1ccccc1OCC(=O)N1CCN(C2=CC3=NCC(C)N3C=N2)CC1 (stereo unspecified)",
    "CLASS LABEL": "bottom end"
  },
  {
    "COMPOUND": "O=C(Nc1ccc2c(c1)OCCO2)N1CCc2nc(-c3ccccc3)ncc2C1",
    "CLASS LABEL": "top end"
  },
  {
    "COMPOUND": "O=C(Cn1nc2c(N3CCCCCC3)nccn2c1=O)Nc1ccccc1C(F)(F)F",
    "CLASS LABEL": "midrange"
  },
  {
    "COMPOUND": "O=C([C@@H]1C[C@H](F)CN1S(=O)(=O)c1cc(F)cc(F)c1)N1CCCCC1",
    "CLASS LABEL": "top end"
  },
  {
    "COMPOUND": "O=C(c1ccco1)N1CCCC(OCc2nc(C3CC3)no2)C1 (stereo unspecified)",
    "CLASS LABEL": "midrange"
  }
]
